Recorded values, source patent US12466821B2.

system.under.test: human CMV DNA polymerase UL54 (Human cytomegalovirus (strain AD169) (HHV-5) (Human herpesvirus 5), UniProt P08546)
method.description: CMV polymerase biochemical assay (molecular beacon-based)
pIC50: −log10 of the molar value.

compound	pIC50
O=C(NCc1ccc(Cl)cc1)c1ccc2n(c1=O)CCN(CC1(S(=O)(=O)C3CCC3)CC1)C2=O	9.00
N#Cc1ccc(CNC(=O)c2ccc3n(c2=O)CCN(CC2(S(=O)(=O)[C@@H]4CC4(F)F)CC2)C3=O)cc1F (single isomer, unassigned)	9.22
Cc1cc(C(=O)NCc2ccc(Cl)cc2)c(=O)n2c1C(=O)N(CC1(S(=O)(=O)C3CC3)CC1)CC2	9.10
N#Cc1ccc(CNC(=O)c2ccc3n(c2=O)CCN(CC2(S(=O)(=O)C4CC4)CC2)C3=O)cc1F	9.10
CCc1cc(C(=O)NCc2ccc(Cl)cc2)c(=O)n2c1C(=O)N(CC1(S(C)(=O)=O)CC1)CC2	8.60
C[S@+]([O-])C1(CN2CCn3c(ccc(C(=O)NCc4ccc(Cl)cc4)c3=O)C2=O)CC1 (single isomer, unassigned)	6.54
O=C(NCc1ccc(Cl)cc1)c1cc(Br)c2n(c1=O)CCN(CCN1CCCS1(=O)=O)C2=O	7.08
CC(=O)NS(=O)(=O)C1(CN2CCn3c(ccc(C(=O)NCc4ccc(Cl)cc4)c3=O)C2=O)CC1	9.10
CC(C)(C)[S+]([O-])C1(CN2CCn3c(ccc(C(=O)NCc4ccc(C#N)cc4)c3=O)C2=O)CC1 (stereo not shown)	7.48
CS(=O)(=O)CCCN1CCn2c(ccc(C(=O)NCc3ccc(Cl)cc3)c2=O)C1=O	6.79
CS(=O)(=O)CCCN1CCn2c(c(CF)cc(C(=O)NCc3ccc(Cl)cc3)c2=O)C1=O	6.45
CN(CCN1CCn2c(c(C3CC3)cc(C(=O)NCc3ccc(Cl)cc3)c2=O)C1=O)S(C)(=O)=O	6.81
CS(=O)(=O)C1(CN2CCn3c(ccc(C(=O)NCc4ccc(Br)cc4)c3=O)C2=O)CC1	8.89

* * *

system.under.test: human CMV DNA polymerase UL54 (Human cytomegalovirus (strain AD169) (HHV-5) (Human herpesvirus 5))
method.description: CMV polymerase biochemical assay (molecular beacon-based)
# maps each entry to its IC50

compound	unit.annotation	IC50
CS(=O)(=O)C1(CN2CCn3c(ccc(C(=O)NCc4ccc(C#N)cc4)c3=O)C2=O)CC1 [Example 46]	nM	6
O=C(NCc1ccc(Cl)cc1)c1ccc2n(c1=O)CCN(CCN1CCCCC1=O)C2=O [Example 57]	nM	374
CS(=O)(=O)C1(CN2CCn3c(ccc(C(=O)NCc4ccc(Cl)c(F)c4)c3=O)C2=O)CC1 [Example 41]	nM	2.8
O=C(NCc1ccc(Cl)cc1)c1cc(CF)c2n(c1=O)CCN(CCN1CCCS1(=O)=O)C2=O [Example 141]	nM	72.8
CC(C)(C)S(=O)(=O)C1(CN2CCn3c(ccc(C(=O)NCc4ccc(C#N)cc4)c3=O)C2=O)CC1 [Example 27]	nM	0.3

* * *

system.under.test: human HSV DNA polymerase UL30 (Human herpesvirus 1 (strain 17) (HHV-1) (Human herpes simplex virus 1), UniProt P04293)
method.description: HSV polymerase biochemical assay (molecular beacon-based)

compound.smiles	IC50 / nM
CC(C)(C(=O)NS(C)(=O)=O)S(=O)(=O)C1(CN2CCn3c(ccc(C(=O)NCc4ccc(Cl)cc4)c3=O)C2=O)CC1	61.9
N#Cc1ccc(CNC(=O)c2ccc3n(c2=O)CCN(CC2(S(=O)(=O)CCCO)CC2)C3=O)cc1	168
CN(C)C(=O)OC1(CN2CCn3c(ccc(C(=O)NCc4ccc(Cl)cc4)c3=O)C2=O)CC1	71000

* * *

# maps each entry to its pIC50
system.under.test: human CMV DNA polymerase UL54 (Human cytomegalovirus (strain AD169) (HHV-5) (Human herpesvirus 5), UniProt P08546)
method.description: CMV polymerase biochemical assay (molecular beacon-based)
pIC50: −log10 of the molar value.

compound.smiles	pIC50
N#Cc1ccc(CNC(=O)c2ccc3n(c2=O)CCN(CCS(=O)(=O)C2CC2)C3=O)cc1F	7.17
N#Cc1ccc(CNC(=O)c2ccc3n(c2=O)CCN(CC2(S(=O)(=O)C4(F)CC4)CC2)C3=O)cc1	8.49
Cc1nc(-c2cc(C(=O)NCc3ccc(Cl)cc3)c(=O)n3c2C(=O)N(CCS(C)(=O)=O)CC3)no1	5.75
CN1CC(S(=O)(=O)C2(CN3CCn4c(ccc(C(=O)NCc5ccc(C#N)c(F)c5)c4=O)C3=O)CC2)C1	7.83
